Molecular target: T1, recombinant protein CDH6 (UniProt P55285 54-615)
T1 construct: also called CDH6 recombinant protein; CDH6 antigen
T1 sequence (looked up): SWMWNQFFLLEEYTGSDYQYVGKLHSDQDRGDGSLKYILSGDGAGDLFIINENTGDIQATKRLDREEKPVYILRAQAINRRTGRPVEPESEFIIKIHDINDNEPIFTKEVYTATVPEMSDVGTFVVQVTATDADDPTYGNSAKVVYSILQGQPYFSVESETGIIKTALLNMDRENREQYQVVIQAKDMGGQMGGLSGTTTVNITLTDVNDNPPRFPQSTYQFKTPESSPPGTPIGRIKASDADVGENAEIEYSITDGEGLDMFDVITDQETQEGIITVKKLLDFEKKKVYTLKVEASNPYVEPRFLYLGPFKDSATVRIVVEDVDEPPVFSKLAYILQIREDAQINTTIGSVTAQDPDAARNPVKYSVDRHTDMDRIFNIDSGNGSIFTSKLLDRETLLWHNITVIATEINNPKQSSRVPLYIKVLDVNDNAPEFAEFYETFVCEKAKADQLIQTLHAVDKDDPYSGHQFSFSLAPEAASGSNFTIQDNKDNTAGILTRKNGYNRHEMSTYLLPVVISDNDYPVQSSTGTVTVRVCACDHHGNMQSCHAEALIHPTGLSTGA
Experiment: ELISA, CDH6 coated; antibody 1.56 ng/mL
Each entry below lists one item and its recorded OD450 value.
Give the quantity in OD450, number only.

- BINDER: "CL069439 antibody (antibody, V domains shown, Mouse monoclonal antibody from hybridoma, purified from ascites with Protein A/G; also called #16; No. 16) VH: EVQLQQSGTELVRTGASVKISCKASGYSFTGYYIHWIKQSHGESLEWIGYISCFNGDTSYNQNFKDRATFNVDTSSSTAYMQFISLTSEDSAVYYCVRGRYGNFNYFDYWGQGTTLTVSS VL: DIVLTQSPASLAVSLGQRATISCRASESVEFYGTSLMQWFQQKPGHPPQLLIYATSNVDSGVPARFSASGSGTDFSLNIHPVEEADIAMYFCQQSRRIPWTFGGGTKLEIK"
  MEASURED: 1.11

[ask] Look up and report measured OD450 for this entry: CL069707 antibody (antibody, V domains shown, Mouse monoclonal antibody from hybridoma, purified from ascites with Protein A/G; also called #23; No. 23) VH: EVHLVESGGGLVQPKGSLKLSCVASGFTFTTYAMNWVRQAPGKGLEWVARIRIKNNNYATYYADSVTDRFTISRDDSQSMLYLQMNNLKTEDTAMYYCVRPDYGNYGLAYWGQGTLVTVSA VL: EIVLTQSPTTMAASPGEKITITCSASSSISSHYLHWYQQKPGFSPKLLIYRSFYLASGVPLRFTGSGSGTSYSLTIGTMEAEDVATYYCQQDIVPLTFGAGTKLELK
[reply] 0.577

[ask] Give me measured OD450, please, for this binder: CL069066 antibody (antibody, V domains shown, Mouse monoclonal antibody from hybridoma, purified from ascites with Protein A/G; also called #4; No. 4) VH: EVKLLESGGGLVQPGGSLKLSCAASGFDFSRYWMTWVRQAPGKGLEWIGEINPDSSTINYTPSLKDKFIISRDNAKNTLYLQMNKVTSEDTALYYCTRRPHYYGYFDSWGQGTTLTVSS VL: DIVLTQSPASLAVSLGQRATISCRASESVEYYGTTLMQWYQQKPGQPPQLLIYAGSNVESGVPARFSGSGSGTEFSLNIHPVEEDDIGMYFCQQSRKVPWTFGGGTKLEIK
[reply] 0.17

[ask] Give recorded OD450. CL069463 antibody (antibody, V domains shown, Mouse monoclonal antibody from hybridoma, purified from ascites with Protein A/G; also called #13; No. 13) VH: EVQLVESGGGLVQPKGSLKLSCAASGFTFNTYALTWVRQAPGKGLEWVGRIKSKNKDYETYYADSVKDRFTISRNDSQSLLYLQMNNLKTEDTAIYYCVRQNWNYFDYWGQGTTLTVSS VL: DIQMTQSPASLAASVGETVTITCRASENIYYSLAWYQQRQGKSPQLLIYNANSLKDGVPSRFSGSGSGTQYSMKINSMQPEDTATYFCQQAYDVPPTFGGGTKLEIK
[reply] 0.374
